Answer each item with its documented inhibition.
- system tested: Bacterial DNA-directed RNA polymerase (Bacteria) (UniProt P0A8V2+P0A7Z4+P0A8T7+P0A800)
- Sequence (P0A7Z4 whole entry partner): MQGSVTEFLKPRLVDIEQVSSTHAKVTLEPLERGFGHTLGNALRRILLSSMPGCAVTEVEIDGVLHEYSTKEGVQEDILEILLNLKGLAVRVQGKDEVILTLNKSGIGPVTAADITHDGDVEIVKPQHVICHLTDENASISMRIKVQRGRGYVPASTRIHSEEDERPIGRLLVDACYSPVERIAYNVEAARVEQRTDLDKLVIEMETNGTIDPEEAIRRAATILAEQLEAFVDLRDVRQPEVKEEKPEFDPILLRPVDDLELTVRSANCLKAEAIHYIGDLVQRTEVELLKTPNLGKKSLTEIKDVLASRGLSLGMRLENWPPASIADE
- Sequence (P0A800 2-91 partner limits assumed): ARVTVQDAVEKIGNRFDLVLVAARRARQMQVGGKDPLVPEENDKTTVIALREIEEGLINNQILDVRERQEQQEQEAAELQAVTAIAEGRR
- Sequence (P0A8T7 whole entry partner): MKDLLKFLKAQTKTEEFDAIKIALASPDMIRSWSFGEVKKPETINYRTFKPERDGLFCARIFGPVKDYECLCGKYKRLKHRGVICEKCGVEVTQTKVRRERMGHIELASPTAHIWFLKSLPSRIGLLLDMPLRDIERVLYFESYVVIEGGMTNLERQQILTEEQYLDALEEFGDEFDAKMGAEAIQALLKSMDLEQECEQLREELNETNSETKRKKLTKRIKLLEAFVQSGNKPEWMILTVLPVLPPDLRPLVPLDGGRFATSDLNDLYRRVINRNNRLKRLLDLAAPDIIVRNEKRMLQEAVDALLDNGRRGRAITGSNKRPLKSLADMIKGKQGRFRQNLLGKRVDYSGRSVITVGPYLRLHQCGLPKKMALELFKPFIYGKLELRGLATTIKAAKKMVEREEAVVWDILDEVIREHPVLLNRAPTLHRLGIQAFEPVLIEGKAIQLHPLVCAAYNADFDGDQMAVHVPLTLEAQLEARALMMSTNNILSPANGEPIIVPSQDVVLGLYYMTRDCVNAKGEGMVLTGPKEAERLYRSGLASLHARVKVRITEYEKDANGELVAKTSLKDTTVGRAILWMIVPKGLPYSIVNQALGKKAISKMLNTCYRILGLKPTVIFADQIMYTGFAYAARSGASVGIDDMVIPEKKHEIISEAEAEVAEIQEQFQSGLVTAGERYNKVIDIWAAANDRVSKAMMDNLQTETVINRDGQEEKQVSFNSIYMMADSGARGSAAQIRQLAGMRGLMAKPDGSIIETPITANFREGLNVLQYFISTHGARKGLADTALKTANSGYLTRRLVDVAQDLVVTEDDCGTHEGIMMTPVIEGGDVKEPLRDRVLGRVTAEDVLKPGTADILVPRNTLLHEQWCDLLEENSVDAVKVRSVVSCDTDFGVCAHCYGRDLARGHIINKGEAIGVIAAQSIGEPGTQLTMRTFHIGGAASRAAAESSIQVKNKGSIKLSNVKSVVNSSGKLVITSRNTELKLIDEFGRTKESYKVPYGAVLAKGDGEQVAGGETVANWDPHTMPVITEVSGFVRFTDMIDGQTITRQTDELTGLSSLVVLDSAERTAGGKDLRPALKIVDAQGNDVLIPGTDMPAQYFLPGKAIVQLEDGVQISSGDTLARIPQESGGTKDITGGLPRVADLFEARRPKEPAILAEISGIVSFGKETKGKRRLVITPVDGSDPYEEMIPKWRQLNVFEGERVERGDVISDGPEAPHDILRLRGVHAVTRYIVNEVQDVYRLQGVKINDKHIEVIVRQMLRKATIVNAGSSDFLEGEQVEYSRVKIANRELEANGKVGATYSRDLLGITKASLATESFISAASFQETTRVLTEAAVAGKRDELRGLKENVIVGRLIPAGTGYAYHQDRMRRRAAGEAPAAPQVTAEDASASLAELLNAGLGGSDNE
- Sequence (P0A8V2 whole entry): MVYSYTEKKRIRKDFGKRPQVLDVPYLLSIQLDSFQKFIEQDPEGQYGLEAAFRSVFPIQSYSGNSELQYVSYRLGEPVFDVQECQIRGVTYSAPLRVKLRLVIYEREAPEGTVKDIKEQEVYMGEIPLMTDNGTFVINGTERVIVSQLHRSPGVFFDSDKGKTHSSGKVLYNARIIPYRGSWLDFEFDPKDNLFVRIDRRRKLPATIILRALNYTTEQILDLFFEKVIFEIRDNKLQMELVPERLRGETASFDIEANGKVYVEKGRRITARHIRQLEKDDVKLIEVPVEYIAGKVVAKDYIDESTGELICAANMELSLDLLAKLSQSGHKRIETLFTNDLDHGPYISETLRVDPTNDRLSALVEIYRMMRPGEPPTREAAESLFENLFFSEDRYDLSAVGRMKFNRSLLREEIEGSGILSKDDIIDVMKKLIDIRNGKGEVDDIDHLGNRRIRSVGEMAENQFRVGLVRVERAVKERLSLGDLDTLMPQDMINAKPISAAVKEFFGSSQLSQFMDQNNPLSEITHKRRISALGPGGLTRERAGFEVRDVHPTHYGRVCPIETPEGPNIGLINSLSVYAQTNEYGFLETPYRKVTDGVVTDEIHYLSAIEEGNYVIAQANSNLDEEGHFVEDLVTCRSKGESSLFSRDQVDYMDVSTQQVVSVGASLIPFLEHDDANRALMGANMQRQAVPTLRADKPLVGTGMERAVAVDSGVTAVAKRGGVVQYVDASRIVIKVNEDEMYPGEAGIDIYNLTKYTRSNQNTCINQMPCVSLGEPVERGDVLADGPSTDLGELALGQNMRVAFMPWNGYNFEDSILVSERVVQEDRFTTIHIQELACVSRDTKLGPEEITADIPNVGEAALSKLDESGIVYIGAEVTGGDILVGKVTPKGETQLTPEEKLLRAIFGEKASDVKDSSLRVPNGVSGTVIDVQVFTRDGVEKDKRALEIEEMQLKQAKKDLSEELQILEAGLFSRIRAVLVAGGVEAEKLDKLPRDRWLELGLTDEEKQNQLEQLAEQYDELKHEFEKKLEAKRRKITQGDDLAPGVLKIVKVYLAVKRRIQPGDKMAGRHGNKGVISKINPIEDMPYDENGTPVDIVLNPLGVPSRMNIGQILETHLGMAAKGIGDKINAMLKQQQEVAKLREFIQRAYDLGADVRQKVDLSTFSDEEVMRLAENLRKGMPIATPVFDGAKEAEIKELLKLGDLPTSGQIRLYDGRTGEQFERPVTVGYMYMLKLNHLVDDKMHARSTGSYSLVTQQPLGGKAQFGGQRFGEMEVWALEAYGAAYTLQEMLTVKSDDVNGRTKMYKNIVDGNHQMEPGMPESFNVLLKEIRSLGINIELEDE
- experimental protocol: Inhibition of Escherichia coli DNA-dependent RNA polymerase at 2.5 ug/ml using calf thymus DNA as primer
- Assay type: protein-complex assay
Numbered stars: 1 amine (or outer) side, 2 acyl side, 3 side chain; on linkers, the order of the positions; unused ones are H or OH. Bridge positions count the residues as written; N and C are the ends. Square brackets hold non-standard residues; d marks the D form. Peptide text beside a SMILES is read from it. I, II: the chains in the order shown. Actinocin(9to1) = Cc1c2oc3c(C)ccc(C(=O)[*:1])c3nc-2c(C(=O)[*:2])c(N)c1=O; NMeV = CN[C@H](C(=O)O)C(C)C; Sar = CNCC(=O)O
Provide only the numeric value, understood in %.

Query: Indicate its recorded inhibition; the compound in question is "Cc1c2oc3c(C)ccc(C(=O)N[C@@H]4C(=O)N[C@H](C(C)C)C(=O)N5CCC[C@H]5C(=O)N(C)CC(=O)N(C)[C@@H](C(C)C)C(=O)O[C@@H]4C)c3nc-2c(C(=O)N[C@@H]2C(=O)N[C@H](C(C)C)C(=O)N3CCC[C@H]3C(=O)N(C)CC(=O)N(C)[C@@H](C(C)C)C(=O)O[C@@H]2C)c(NCCNC2CC(C)(C)N([O])C(C)(C)C2)c1=O"
Response: 43

Query: Give reported inhibition value for "Cc1c2oc3c(C)ccc(C(=O)N[C@@H]4C(=O)N[C@H](C(C)C)C(=O)N5CCC[C@H]5C(=O)N(C)CC(=O)N(C)[C@@H](C(C)C)C(=O)O[C@@H]4C)c3nc-2c(C(=O)N[C@@H]2C(=O)N[C@H](C(C)C)C(=O)N3CCC[C@H]3C(=O)N(C)CC(=O)N(C)[C@@H](C(C)C)C(=O)O[C@@H]2C)c(NC2CC(C)(C)N([O])C(C)(C)C2)c1=O"
Response: 37

Query: Report measured inhibition; entry is Cc1c2oc3c(C)ccc(C(=O)N[C@@H]4C(=O)N[C@H](C(C)C)C(=O)N5CCC[C@H]5C(=O)N(C)CC(=O)N(C)[C@@H](C(C)C)C(=O)O[C@@H]4C)c3nc-2c(C(=O)N[C@@H]2C(=O)N[C@H](C(C)C)C(=O)N3CCC[C@H]3C(=O)N(C)CC(=O)N(C)[C@@H](C(C)C)C(=O)O[C@@H]2C)c(N)c1=O [DACTINOMYCIN] (I: T[dV]P[Sar][NMeV] / II: T[dV]P[Sar][NMeV]; ester I:1-I:C, II:1-II:C; linker I:N-II:N via Actinocin(9to1))
Response: 89

Query: Check the records and state inhibition for "Cc1c2oc3c(C)ccc(C(=O)N[C@@H]4C(=O)N[C@H](C(C)C)C(=O)N5CCC[C@H]5C(=O)N(C)CC(=O)N(C)[C@@H](C(C)C)C(=O)O[C@@H]4C)c3nc-2c(C(=O)N[C@@H]2C(=O)N[C@H](C(C)C)C(=O)N3CCC[C@H]3C(=O)N(C)CC(=O)N(C)[C@@H](C(C)C)C(=O)O[C@@H]2C)c(NCCCNC2CC(C)(C)N([O])C(C)(C)C2)c1=O"
Response: 28

---

For each entry below, report its inhibition value.
- system tested: Bacterial DNA-directed RNA polymerase (Bacteria) (UniProt P0A8V2+P0A7Z4+P0A8T7+P0A800)
- experimental protocol: Inhibition of Escherichia coli DNA-dependent RNA polymerase at 20 ug/ml using Micrococcus luteus DNA as primer
- Assay type: protein-complex assay
Kindly provide the numeric value in % only, without the unit symbol.

Query: Read off the recorded inhibition for "Cc1c2oc3c(C)ccc(C(=O)N[C@@H]4C(=O)N[C@H](C(C)C)C(=O)N5CCC[C@H]5C(=O)N(C)CC(=O)N(C)[C@@H](C(C)C)C(=O)O[C@@H]4C)c3nc-2c(C(=O)N[C@@H]2C(=O)N[C@H](C(C)C)C(=O)N3CCC[C@H]3C(=O)N(C)CC(=O)N(C)[C@@H](C(C)C)C(=O)O[C@@H]2C)c(NCCCNC2CC(C)(C)N([O])C(C)(C)C2)c1=O"
Response: 62

Query: Respond only with inhibition recorded for "Cc1c2oc3c(C)ccc(C(=O)N[C@@H]4C(=O)N[C@H](C(C)C)C(=O)N5CCC[C@H]5C(=O)N(C)CC(=O)N(C)[C@@H](C(C)C)C(=O)O[C@@H]4C)c3nc-2c(C(=O)N[C@@H]2C(=O)N[C@H](C(C)C)C(=O)N3CCC[C@H]3C(=O)N(C)CC(=O)N(C)[C@@H](C(C)C)C(=O)O[C@@H]2C)c(NCCNC2CC(C)(C)N([O])C(C)(C)C2)c1=O"
Response: 91

Query: Report measured inhibition; entry is "Cc1c2oc3c(C)ccc(C(=O)N[C@@H]4C(=O)N[C@H](C(C)C)C(=O)N5CCC[C@H]5C(=O)N(C)CC(=O)N(C)[C@@H](C(C)C)C(=O)O[C@@H]4C)c3nc-2c(C(=O)N[C@@H]2C(=O)N[C@H](C(C)C)C(=O)N3CCC[C@H]3C(=O)N(C)CC(=O)N(C)[C@@H](C(C)C)C(=O)O[C@@H]2C)c(NC2CC(C)(C)N([O])C(C)(C)C2)c1=O"
Response: 77
